Origin of values: patent US3984481A

- Tested on: Elodea
- test: Algae control (aquatic weed control) test
- Format: in vivo
- study.conditions: Elodea; 2 ppm; 20°C; 7 to 10 days; 0 no effectiveness, 100 complete effectiveness; read-out: Percent Aquatic Weed Control
property.label: inhibition at 2 ppm (%)
Kindly provide the numeric value in % only, without the unit symbol.

{"columns": ["query.smiles", "property.label", "reading.unit", "obs.value"],
 "data": [
  ["O=S(=O)(C=CSc1cc(Cl)ccc1Cl)C=CSc1cc(Cl)ccc1Cl", "inhibition at 2 ppm", "%", 70],
  ["O=S(=O)(C=CSc1ccc(Br)cc1)C=CSc1ccc(Br)cc1", "inhibition at 2 ppm", "%", 94]
]}

Alright, here's another molecule for you.
Provide measured inhibition at 2 ppm value, entry: O=S(=O)(C=CSc1ccccc1)C=CSc1ccccc1
39

---

Recorded inhibition at 2 ppm values for a group of compounds are listed next.
- Tested on: Elodea
- test: Algae control (aquatic weed control) test
- Type: in vivo
- study.conditions: Elodea; 2 ppm; 20°C; 7 to 10 days; 0 no effectiveness, 100 complete effectiveness; read-out: Percent Aquatic Weed Control
Kindly provide the numeric value in % only, without the unit symbol.

Below, 4 compounds whose answers are already recorded.
{"columns": ["compound", "inhibition at 2 ppm (%)"],
 "data": [
  ["O=S(=O)(C=CSc1ccc(F)cc1)C=CSc1ccc(F)cc1", 70],
  ["O=S(=O)(C=CSc1ccc(Cl)c(Cl)c1)C=CSc1ccc(Cl)c(Cl)c1", 90],
  ["O=S(=O)(CCSc1ccc(Cl)cc1)CCSc1ccc(Cl)cc1 [Compound 10, bis-2-(4-chlorophenylthio)ethyl sulfone, reference compound]", 0],
  ["O=S(=O)(C=CSc1ccc(Cl)cc1)C=CSc1ccc(Cl)cc1", 97]
]}

Alright, here's another compound for you.
Provide measured inhibition at 2 ppm value, entry: O=S(=O)(C=CSc1cccc(Cl)c1)C=CSc1cccc(Cl)c1
94

---

- System: Botrytis cinerea
- test: Mycelial inhibition test
- study.conditions: Botrytis cinerea; 99% control; 25°C, 24 hours; 500 ppm acetone solution sprayed
property.label: Mycelia Inhibition, micrograms/cm^2 for 99% control (micrograms/cm^2)
Kindly provide the numeric value in micrograms/cm^2 only, without the unit symbol.

Below, 3 compounds whose answers are already recorded.
{"columns": ["query.smiles", "tested.on", "obs.value"],
 "data": [
  ["O=S(=O)(C=CSc1cc(Cl)ccc1Cl)C=CSc1cc(Cl)ccc1Cl", "Botrytis cinerea", 0.70],
  ["O=S(=O)(C=CSc1ccc(Cl)c(Cl)c1)C=CSc1ccc(Cl)c(Cl)c1", "Botrytis cinerea", 0.70],
  ["O=S(=O)(C=CSc1cccc(Cl)c1)C=CSc1cccc(Cl)c1", "Botrytis cinerea", 1.2]
]}

Provide measured Mycelia Inhibition, micrograms/cm^2 for 99% control value, entry: O=S(=O)(C=CSc1ccc(Br)cc1)C=CSc1ccc(Br)cc1
1.4

Provide measured Mycelia Inhibition, micrograms/cm^2 for 99% control value, entry: O=S(=O)(C=CSc1ccccc1)C=CSc1ccccc1
1.5

---

- System: Lemna
- test: Algae control (aquatic weed control) test
- Format: in vivo
- study.conditions: 2 ppm, 20°C, 7 to 10 days, 0 no effectiveness, 100 complete effectiveness, read-out: Percent Aquatic Weed Control
Where inhibition at 2 ppm equals or exceeds 70%, the correct label is satisfied; where it does not, the label is not satisfied.

Use these answered entries as a reference point.
{"columns": ["compound", "group"],
 "data": [
  ["O=S(=O)(C=CSc1cccc(Cl)c1)C=CSc1cccc(Cl)c1", "satisfied"],
  ["O=S(=O)(C=CSc1cc(Cl)ccc1Cl)C=CSc1cc(Cl)ccc1Cl", "not satisfied"],
  ["O=S(=O)(C=CSc1ccccc1)C=CSc1ccccc1", "not satisfied"],
  ["O=S(=O)(C=CSc1ccc(Br)cc1)C=CSc1ccc(Br)cc1", "satisfied"],
  ["O=S(=O)(CCSc1ccc(Cl)cc1)CCSc1ccc(Cl)cc1 [Compound 10, bis-2-(4-chlorophenylthio)ethyl sulfone, reference compound]", "not satisfied"]
]}

Below: the item to evaluate.
Is reported inhibition at 2 ppm greater than or equal to 70% here: O=S(=O)(C=CSc1ccc(F)cc1)C=CSc1ccc(F)cc1
not satisfied
